- target_of_assay: HIV-1 protease (Human immunodeficiency virus type 1 group M subtype B)
- method_notes: biochemical
- assay_conditions: dose 3.300 uM; read-out: HIV-1 Protease % Inhib
observation_type: inhibition at 3.3 µM (%)

Worked set:
CCNC(=S)Nc1cccc(C(c2c(O)c3c(oc2=O)CCCCCC3)C2CC2)c1 (stereo not drawn) ... 58.5
CS(=O)(=O)N(Cc1ccccc1)c1cccc(C(c2c(O)c3c(oc2=O)CCCCCC3)C2CC2)c1 (stereo not drawn) ... 50.9
CC(=O)Nc1nc(C)c(S(=O)(=O)Nc2cccc(C(c3c(O)c4c(oc3=O)CCCCCC4)C3CC3)c2)s1 (stereo not drawn) ... 61.1
O=c1oc2c(c(O)c1C(c1ccc(NS(=O)(=O)c3ccc(Cl)cc3)cc1)C1CC1)CCCCCC2 (stereo not drawn) ... 14.4

(1) O=c1oc2c(c(O)c1C(c1ccc(CNS(=O)(=O)c3ccc(F)cc3)o1)C1CC1)CCCCCC2 (stereo not drawn)
(2) N#Cc1ccc(S(=O)(=O)Nc2ccc(C(c3c(O)c4c(oc3=O)CCCCCC4)C3CC3)cc2)cc1 (stereo not drawn)
Look at 1 and 2 . Which one has the lower recorded inhibition at 3.3 µM number? Please identify the chosen entry by its label. 2
